Hello, the source for this data is patent US9295671B2, in case you need it.

pIC50 values by entry
- Tested on: A549 cells
- procedureText: Inhibition of cancer cell growth, MTT assay, A549
- Format: cell-based
- reportedConditions: Homo sapiens, 72 h
pIC50: −log10 of the molar value.

Sample records with pIC50:
{"mol": "CCCS(=O)(=O)Nc1cc(F)c(F)c(C(=O)c2ccc3ncc(Cl)nc3c2)c1F", "pIC50": "< 6.00"}
{"mol": "CCCS(=O)(=O)Nc1cc(F)c(SC)c(C(=O)c2ccc3nccnc3c2)c1F", "pIC50": "< 6.00"}
{"mol": "CCCS(=O)(=O)Nc1cc(F)c(F)c(C(=O)c2ccc3ncc(OC)nc3c2)c1F", "pIC50": "< 6.00"}
{"mol": "CCCS(=O)(=O)Nc1ccc(F)c(C(=O)c2ccc3ncc(N4CCOCC4)nc3c2)c1", "pIC50": "< 6.00"}
{"mol": "CCCS(=O)(=O)Nc1cc(F)cc(C(=O)c2ccc3ncc(N4CCOCC4)nc3c2)c1", "pIC50": "< 6.00"}

Now, please, on to the next molecule.
Requested field: pIC50. Item: `CCCS(=O)(=O)Nc1ccc(F)c(C(=O)c2ccc3nccnc3c2)c1F` > 6.30

----------
- systemTested: BRAF V600E (Homo sapiens, UniProt P15056, V600E)
- Sequence (P15056 whole entry V600E): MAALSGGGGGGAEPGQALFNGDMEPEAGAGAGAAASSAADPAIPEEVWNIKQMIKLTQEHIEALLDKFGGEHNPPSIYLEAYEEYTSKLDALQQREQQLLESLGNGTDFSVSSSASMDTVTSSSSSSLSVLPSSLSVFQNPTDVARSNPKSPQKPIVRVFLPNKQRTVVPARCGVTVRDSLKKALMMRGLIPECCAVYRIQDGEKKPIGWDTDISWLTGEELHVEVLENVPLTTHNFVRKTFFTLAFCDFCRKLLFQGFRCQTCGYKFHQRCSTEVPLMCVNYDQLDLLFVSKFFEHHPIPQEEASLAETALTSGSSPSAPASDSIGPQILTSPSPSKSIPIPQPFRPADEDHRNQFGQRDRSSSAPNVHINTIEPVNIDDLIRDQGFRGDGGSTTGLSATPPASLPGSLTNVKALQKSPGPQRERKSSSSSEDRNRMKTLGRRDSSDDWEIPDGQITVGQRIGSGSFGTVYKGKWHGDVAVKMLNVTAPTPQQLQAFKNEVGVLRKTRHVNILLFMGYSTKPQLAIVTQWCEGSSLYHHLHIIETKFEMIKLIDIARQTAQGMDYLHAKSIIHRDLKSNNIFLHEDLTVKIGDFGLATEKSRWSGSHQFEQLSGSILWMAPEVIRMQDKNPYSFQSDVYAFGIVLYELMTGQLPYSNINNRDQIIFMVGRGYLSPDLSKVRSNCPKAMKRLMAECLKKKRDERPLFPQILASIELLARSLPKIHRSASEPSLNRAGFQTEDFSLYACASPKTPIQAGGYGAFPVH
- procedureText: LanthaScreen kinase assay, BRAF V600E
- reportedConditions: ATP 10 μM
# IC50 annotations

{"molecule": "CCCS(=O)(=O)Nc1cc(F)c(F)c(C(=O)c2ccc3ncc(N4CCNCC4)nc3c2)c1F [Compound C24]", "systemTested": "BRAF V600E (Homo sapiens, UniProt P15056, V600E)", "propertyName": "IC50", "val": "< 0.05 µM"}
{"molecule": "CCCS(=O)(=O)Nc1cc(F)c(F)c(C(=O)c2ccc3ncc(-c4ccccc4)nc3c2)c1F [Compound C26]", "systemTested": "BRAF V600E (Homo sapiens, UniProt P15056, V600E)", "propertyName": "IC50", "val": "< 0.05 µM"}
{"molecule": "CCCS(=O)(=O)Nc1cc(F)c(F)c(C(=O)c2ccc3ncc(N4CCOCC4)nc3c2)c1 [Compound C37]", "systemTested": "BRAF V600E (Homo sapiens, UniProt P15056, V600E)", "propertyName": "IC50", "val": "0.05 to 0.1 µM"}
{"molecule": "CCCS(=O)(=O)Nc1cc(F)c(F)c(C(=O)c2ccc3ncc(C)nc3c2)c1F [Compound C19]", "systemTested": "BRAF V600E (Homo sapiens, UniProt P15056, V600E)", "propertyName": "IC50", "val": "0.1 to 1 µM"}
{"molecule": "CCCS(=O)(=O)Nc1cc(F)c(F)c(C(=O)c2ccc3nccnc3c2)c1F [Compound C04]", "systemTested": "BRAF V600E (Homo sapiens, UniProt P15056, V600E)", "propertyName": "IC50", "val": "< 0.05 µM"}
{"molecule": "CCCS(=O)(=O)Nc1ccc(F)c(C(=O)c2ccc3nccnc3c2)c1Cl [Compound C06]", "systemTested": "BRAF V600E (Homo sapiens, UniProt P15056, V600E)", "propertyName": "IC50", "val": "< 0.05 µM"}
{"molecule": "CCCS(=O)(=O)Nc1cc(F)c(F)c(C(=O)c2ccc3ncc(-n4cncc4C)nc3c2)c1F [Compound C40]", "systemTested": "BRAF V600E (Homo sapiens, UniProt P15056, V600E)", "propertyName": "IC50", "val": "< 0.05 µM"}

Let us examine a further case.
Which IC50 is listed for CCCS(=O)(=O)Nc1cc(F)c(F)c(C(=O)c2ccc3ncc(-c4ccc(C)nc4)nc3c2)c1F [Compound C34] ? < 0.05 µM

----------
- systemTested: BRAF (Homo sapiens)
- Construct: purchased Invitrogen
- Sequence (P15056 whole entry): as the sequence (P15056 whole entry V600E) above, with E600V counted along it
- procedureText: Z′-LYTE kinase assay, BRAF (Invitrogen)
- Format: biochemical
- reportedConditions: Z′-LYTE method
- Method: Inhibitory activities of compounds against BRAF or BRAF V600E were measured by Invitrogen using Z′-LYTE® Method as briefly described in the following. 4× Test compounds are dissolved in 1% DMSO. […] Reaction starts by 30-second shaking of mixture consisting of 2.5 μL4× test compound, […] and 2.5 μL 4×ATP Solution on Bar-coded Corning, low volume NBS, black 384-well plate (Corning Cat. #3676). […] Finally fluorescence is read by plate reader.
propertyName: inhibition at 1 µM

{"mol": "CCCS(=O)(=O)Nc1cc(F)c(F)c(C(=O)c2ccc3ncc(OC)nc3c2)c1F", "systemTested": "BRAF (Homo sapiens)", "inhibition at 1 µM": "> 89%"}
{"mol": "CCCS(=O)(=O)Nc1ccc(F)c(C(=O)c2ccc3ncc(-c4ccc(Cl)cc4)nc3c2)c1F", "systemTested": "BRAF (Homo sapiens)", "inhibition at 1 µM": "70 to 89%"}
{"mol": "CCCS(=O)(=O)Nc1ccc(F)c(C(=O)c2ccc3nccnc3c2)c1F", "systemTested": "BRAF (Homo sapiens)", "inhibition at 1 µM": "70 to 89%"}

Now for the compound whose inhibition at 1 µM we want.
Which inhibition at 1 µM is reported for this compound? `CCCS(=O)(=O)Nc1cc(F)c(F)c(C(=O)c2ccc3nccnc3c2)c1F` > 89%

----------
- systemTested: BRAF V600E (Homo sapiens, UniProt P15056, V600E)
- Construct: purchased Invitrogen
- procedureText: Z′-LYTE kinase assay, BRAF V600E (Invitrogen)
- Type: biochemical
- reportedConditions: Z′-LYTE method
propertyName: inhibition at 1 µM

Check out these entries, answers already filled in.
{"compound": "CCCS(=O)(=O)Nc1cc(F)c(F)c(C(=O)c2ccc3ncc(N(C)CCN(C)C)nc3c2)c1F [Compound C13]", "inhibition at 1 µM": "> 89%"}
{"compound": "CCCS(=O)(=O)Nc1cc(F)cc(C(=O)c2ccc3nccnc3c2)c1 [Compound C16]", "inhibition at 1 µM": "< 70%"}
{"compound": "CCCS(=O)(=O)Nc1cc(F)c(F)c(C(=O)c2ccc3ncc(N4CCOCC4)nc3c2)c1F [Compound C09]", "inhibition at 1 µM": "> 89%"}
{"compound": "CCCS(=O)(=O)Nc1cc(F)c(F)c(C(=O)c2ccc3ncc(OC)nc3c2)c1F [Compound C10]", "inhibition at 1 µM": "70 to 89%"}
{"compound": "CCCS(=O)(=O)Nc1ccc(F)c(C(=O)c2ccc3nccnc3c2)c1F [Compound C01]", "inhibition at 1 µM": "> 89%"}
{"compound": "CCCS(=O)(=O)Nc1cc(F)c(F)c(C(=O)c2ccc3nccnc3c2)c1Cl [Compound C14]", "inhibition at 1 µM": "70 to 89%"}
{"compound": "CCCS(=O)(=O)Nc1cc(F)c(SC)c(C(=O)c2ccc3nccnc3c2)c1F [Compound C08]", "inhibition at 1 µM": "< 70%"}
{"compound": "CCCS(=O)(=O)Nc1cc(F)c(F)c(C(=O)c2ccc3nccnc3c2)c1 [Compound C07]", "inhibition at 1 µM": "70 to 89%"}

Quick check: inhibition at 1 µM of CCCS(=O)(=O)Nc1cc(F)c(F)c(C(=O)c2ccc3ncc(Cl)nc3c2)c1F [Compound C11] ? > 89%

So what's the measured inhibition at 1 µM for this one? CCCS(=O)(=O)Nc1cc(F)c(F)c(C(=O)c2ccc3nccnc3c2)c1F [Compound C04] > 89%

Which inhibition at 1 µM reading was recorded for the compound CCCS(=O)(=O)Nc1ccc(F)c(C(=O)c2ccc3ncc(N4CCOCC4)nc3c2)c1 [Compound C17] ? < 70%

----------
Observed IC50 for BRAF (Homo sapiens), reported per entry below.

Some molecules with recorded IC50:
{"mol": "CCCS(=O)(=O)Nc1cc(F)c(F)c(C(=O)c2ccc3ncc(F)nc3c2)c1F", "val": "50 to 100 nM"}
{"mol": "CCCS(=O)(=O)Nc1ccc(F)c(C(=O)c2ccc3nccnc3c2)c1Cl", "val": "100 to 1000 nM"}
{"mol": "CCCS(=O)(=O)Nc1cc(F)c(F)c(C(=O)c2ccc3ncc(-c4cn[nH]c4)nc3c2)c1F", "val": "< 50 nM"}

// next item, IC50 requested
Name the recorded IC50 for `O=C(c1ccc2ncc(N3CCOCC3)nc2c1)c1c(F)c(F)cc(NS(=O)(=O)C2CC2)c1F` . 100 to 1000 nM

----------
- Test system: A549 cells
- procedureText: Inhibition of cancer cell growth, MTT assay, A549
- Type: cell-based
- reportedConditions: Homo sapiens, 72 h
propertyName: IC50

# input compound: `CCCS(=O)(=O)Nc1cc(F)c(F)c(C(=O)c2ccc3ncc(N(C)CCN(C)C)nc3c2)c1F` ; wanted: its IC50 > 1 µM

Item under review: `CCCS(=O)(=O)Nc1ccc(F)c(C(=O)c2ccc3ncc(-c4ccc(Cl)cc4)nc3c2)c1F` . Reported IC50? 0.5 to 1 µM

Item `CCCS(=O)(=O)Nc1ccc(F)c(C(=O)c2ccc3ncc(OC)nc3c2)c1F` has what recorded IC50? > 1 µM

Tell me the measured IC50 of `CCCS(=O)(=O)Nc1ccc(F)c(C(=O)c2ccc3ncc(C#N)nc3c2)c1F` , please. < 0.5 µM

Could you share which IC50 value was measured for `CCCS(=O)(=O)Nc1cc(F)c(F)c(C(=O)c2ccc3nccnc3c2)c1` ? > 1 µM
